Test system: Ipomoea hederacea (IPOHE)
Assay: Post-emergence Test (glasshouse, percentage damage to the plant)
Format: in vivo
Settings: post-emergence; 1000 g/ha unless otherwise stated; evaluated after 13 days
measurement kind: IPOHE, percentage damage caused to the plant (five-point scale)

compound="CCn1c(C)c(-c2ccc(Cl)cc2)c(=O)c(C(=O)O)c1-c1cnc(Cl)c(Cl)c1 [Compound 208]" result="2 (2=21-40%)"
compound="CCn1c(C)c(-c2cc(OC(C)C)c(Cl)cc2F)c(=O)c(C(=O)O)c1-c1ccc(Cl)c(Cl)c1 [Compound 245]" result="4 (4=61-80%)"
compound="CCN(CC)S(=O)(=O)c1ccc(-c2c(C)n(CC)c(-c3ccc(Cl)c(Cl)c3)c(C(=O)O)c2=O)cc1 [Compound 237]" result="2 (2=21-40%)"
compound="CCn1c(C)c(-c2ccc(Cl)cc2F)c(=O)c(C(=O)O)c1-c1cnc(Cl)c(Cl)c1 [Compound 242]" result="4 (4=61-80%)"
